Molecular target: Protein kinase C alpha type (Homo sapiens)
Experiment: Activation of human recombinant PKCalpha assessed as rate of phosphate incorporation into PepTag C1 peptide at 1 to 100 uM after 40 mins by agarose gel electrophoresis analysis
Active and inactive are the calls of the source. The rule behind the calls is not given here.
measured-endpoint: Activity

Requested field: Activity. Item: CCCCCCCCCCCCO[C@H]1[C@@H](OCc2ccc(C(C)C)cc2)[C@H](OCc2ccc(C(C)C)cc2)[C@@H](OCC#Cc2cccc3c2C(=O)O[C@]3(CO)COC(=O)C(C(C)(C)C)C(C)(C)C)[C@H](OCc2ccc(C(C)C)cc2)[C@H]1OCc1ccc(C(C)C)cc1
Active

Can you handle CCCCCCCCCCCCO[C@H]1[C@@H](OCc2ccc(F)cc2)[C@H](OCc2ccc(F)cc2)[C@@H](OCC#Cc2cccc3c2C(=O)O[C@]3(CO)COC(=O)C(C(C)(C)C)C(C)(C)C)[C@H](OCc2ccc(F)cc2)[C@H]1OCc1ccc(F)cc1 next?
Active
